In this section we review reported selectivity ratio values for a set of compounds.
# ASSAY EXPLANATION: Selectivity index, ratio of IC50 for human L02 cells to IC50 for human CCRF-CEM cells
# Type: toxicity
# CONDITION INFO: L02 cells and CCRF-CEM cells, read-out: Selectivity Index
READOUT NAME: selectivity ratio

C[C@@H]1CC[C@@H]2[C@]34OO[C@](C)(CC[C@@H]13)O[C@H]4O[C@]2(C)COC(=O)c1ccccc1N(CCCl)CCCl
5.19
O=C(O)CCCc1ccc(N(CCCl)CCCl)cc1
8.79
Cc1cc(C(=O)OC[C@@]2(C)O[C@@H]3O[C@@]4(C)CC[C@H]5[C@H](C)CC[C@@H]2[C@@]35OO4)ccc1N(CCCl)CCCl
3.37
C[C@@H]1CC[C@H]2[C@@H](C)C(OC(=O)c3ccc(N(CCCl)CCCl)cc3)O[C@@H]3O[C@@]4(C)CC[C@@H]1[C@]32OO4 (some centres undefined)
44.7

---

# Test system: HL-60
# ASSAY EXPLANATION: Antiproliferative activity against human HL-60 cells assessed as cell growth inhibition incubated for 72 hrs by MTT assay
# Format: functional, cell-based
# CONDITION INFO: HL-60, 72 h
pIC50: −log10 of the molar value.
In this section we review reported pIC50 values for a set of molecules.
READOUT NAME: pIC50

C[C@@H]1CC[C@H]2[C@@H](C)C(OC(=O)c3ccc(N(CCCl)CCCl)cc3)O[C@@H]3O[C@@]4(C)CC[C@@H]1[C@]32OO4 (stereo partly drawn)
5.63
Cc1cc(C(=O)OC[C@@]2(C)O[C@@H]3O[C@@]4(C)CC[C@H]5[C@H](C)CC[C@@H]2[C@@]35OO4)ccc1N(CCCl)CCCl
5.53
C[C@@H]1CC[C@@H]2[C@]34OO[C@](C)(CC[C@@H]13)O[C@H]4O[C@]2(C)COC(=O)c1ccccc1N(CCCl)CCCl
6.10
C[C@@H]1CC[C@H]2[C@@H](C)C(OC(=O)CCc3ccc(N(CCCl)CCCl)cc3)O[C@@H]3O[C@@]4(C)CC[C@@H]1[C@]32OO4 (stereo partly drawn)
4.52
C[C@H]1[C@@H](O)O[C@@H]2O[C@@]3(C)CC[C@H]4[C@H](C)CC[C@@H]1[C@@]24OO3
4.21
O=C(O)CCCc1ccc(N(CCCl)CCCl)cc1
4.46
C[C@@H]1CC[C@@H]2[C@]34OO[C@](C)(CC[C@@H]13)O[C@H]4O[C@]2(C)COC(=O)Cc1ccc(N(CCCl)CCCl)cc1
4.68
C[C@@H]1CC[C@H]2[C@@H](C)C(OC(=O)Cc3ccc(N(CCCl)CCCl)cc3)O[C@@H]3O[C@@]4(C)CC[C@@H]1[C@]32OO4 (stereo partly drawn)
4.95

Origin of measurements: ChEMBL document CHEMBL5247590
